Task for the reader: assign each of the following compounds its reported inhibition at 1 µM.
Target: serotoninergic 5-HT7 receptor (Homo sapiens)
Sequence (P34969 whole entry): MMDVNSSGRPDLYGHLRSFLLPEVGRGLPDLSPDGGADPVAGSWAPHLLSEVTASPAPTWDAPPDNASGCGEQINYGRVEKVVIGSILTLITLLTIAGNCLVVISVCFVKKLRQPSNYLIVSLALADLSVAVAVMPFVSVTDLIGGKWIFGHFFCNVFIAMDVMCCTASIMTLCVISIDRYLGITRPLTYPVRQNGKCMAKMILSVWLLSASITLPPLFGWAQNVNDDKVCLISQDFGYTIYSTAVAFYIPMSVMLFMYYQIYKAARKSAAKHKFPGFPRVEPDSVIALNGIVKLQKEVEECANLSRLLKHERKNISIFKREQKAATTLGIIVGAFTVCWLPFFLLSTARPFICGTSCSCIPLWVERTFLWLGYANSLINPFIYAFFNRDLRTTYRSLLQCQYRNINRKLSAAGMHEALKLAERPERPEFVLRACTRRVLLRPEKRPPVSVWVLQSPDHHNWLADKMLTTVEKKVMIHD
Test: Binding assay 5-HT7 (h), [3H]LSD, CHO cells
Design: expressed in transfected cells; host or cells: CHO cells
Conditions: read-out: 5-HT7
# unit: % | format: bare number

"O=S(=O)(NCCCCN1CCN(c2cccc3[nH]ccc23)CC1)c1ccccc1" yielded inhibition at 1 µM of 92

inhibition at 1 µM measured on "O=S(=O)(NCCCCN1CCN(c2cccc3[nH]ccc23)CC1)c1cccc(Cl)c1" = 97

So, "O=S(=O)(NCCCN1CCC(c2noc3cc(F)ccc23)CC1)c1cc2ccc(Cl)cc2s1" ? Its inhibition at 1 µM was 100

inhibition at 1 µM reported for this compound "O=S(=O)(NCCCN1CCC(c2noc3cc(F)ccc23)CC1)c1ccsc1" : 90

Form: compound = "O=S(=O)(NCCCN1CCN(c2nsc3ccccc23)CC1)c1ccc(Cl)s1" ; inhibition at 1 µM = 100

Given item "Cc1cccc(S(=O)(=O)NCCCN2CCN(c3nsc4ccccc34)CC2)c1" , the value recorded as its inhibition at 1 µM is 97

Memo: "O=S(=O)(NCCCCN1CCN(c2noc3ccccc23)CC1)c1ccc2cn[nH]c2c1" , reported inhibition at 1 µM: 99

Record "O=S(=O)(NCCCCN1CCC(c2noc3cc(F)ccc23)CC1)c1ccc(Cl)s1" , field inhibition at 1 µM: 99

The compound listed as "O=c1[nH]c2cccc(N3CCN(CCCNS(=O)(=O)c4ccc(Cl)cc4)CC3)c2[nH]1" shows inhibition at 1 µM equal to 95

For "N#Cc1cccc(S(=O)(=O)NCCCCN2CCN(c3nsc4ccccc34)CC2)c1" the compound record lists inhibition at 1 µM as 91

// inhibition at 1 µM lookup, compound = "O=S(=O)(NCCCCN1CCC(c2noc3cc(F)ccc23)CC1)c1cccc2scnc12" , result: 92

Note to self: inhibition at 1 µM recorded for "O=S(=O)(NCCCCN1CCN(c2nsc3ccccc23)CC1)c1cc2ccccc2s1" was 98

// "O=S(=O)(NCCCCN1CCN(c2nsc3ccccc23)CC1)c1cnc2ccccn12" : inhibition at 1 µM value = 86

Note to self: inhibition at 1 µM recorded for "O=S(=O)(NCCCCN1CCC(c2noc3cc(F)ccc23)CC1)c1cccc(Cl)c1" was 85

Item: "O=S(=O)(NCCCCN1CCN(c2cccc3c2OCCO3)CC1)c1ccc(Cl)s1" | inhibition at 1 µM: 97

Form field inhibition at 1 µM, entry "O=S(=O)(NCCCCN1CCC(c2noc3cc(F)ccc23)CC1)c1ccc(F)c(F)c1" : 99

Lab note: measured inhibition at 1 µM of "O=S(=O)(NCCCCN1CCN(c2cccc3[nH]ccc23)CC1)c1ccc2ccccc2c1" was 98

---

Molecular target: dopaminergic D2 receptor (Homo sapiens, UniProt P14416)
Sequence (P14416 1-414 isoform P14416-2): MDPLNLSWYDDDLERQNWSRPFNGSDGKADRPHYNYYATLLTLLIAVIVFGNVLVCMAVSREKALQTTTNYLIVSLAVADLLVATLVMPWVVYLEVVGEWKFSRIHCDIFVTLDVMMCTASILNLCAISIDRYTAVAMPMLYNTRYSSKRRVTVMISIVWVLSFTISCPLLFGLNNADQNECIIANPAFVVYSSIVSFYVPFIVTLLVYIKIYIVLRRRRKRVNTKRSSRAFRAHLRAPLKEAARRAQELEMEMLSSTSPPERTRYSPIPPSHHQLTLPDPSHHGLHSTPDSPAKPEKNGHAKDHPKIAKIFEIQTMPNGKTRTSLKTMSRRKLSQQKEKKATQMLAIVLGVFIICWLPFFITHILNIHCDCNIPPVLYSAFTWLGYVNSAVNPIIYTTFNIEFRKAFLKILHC
Experiment: Binding assay D2S (h), [3H]methyl-spiperone, HEK-293 cells
Set-up: expressed in transfected cells; host or cells: HEK-293 cells
Settings: read-out: D2 [%]
measurement.kind: inhibition at 1 µM

Recorded result, Cc1cccc(S(=O)(=O)NCCN2CCC(c3noc4cc(F)ccc34)CC2)c1 [Compound 25] , inhibition at 1 µM: 96%

Measured inhibition at 1 µM, O=S(=O)(NCCCCN1CCC(c2noc3cc(F)ccc23)CC1)c1cccc(F)c1 [Compound 107] : 104%

Looking up O=S(=O)(NCCCCN1CCN(c2nsc3ccccc23)CC1)c1ccc2ccccc2c1 [Compound 2] , I found its inhibition at 1 µM recorded as 98%

Lookup result for O=S(=O)(NCCCCN1CCC(c2noc3cc(F)ccc23)CC1)c1ccc(F)c(F)c1 [Compound 295] ; measured inhibition at 1 µM: 95%

Note to self: inhibition at 1 µM recorded for O=S(=O)(NCCCN1CCC(c2noc3cc(F)ccc23)CC1)c1cc2ccccc2o1 [Compound 349] was 93%

What the record says about COc1cccc(S(=O)(=O)NCCCN2CCN(c3nsc4ccccc34)CC2)c1 [Compound 255] : inhibition at 1 µM is 98%

Query O=S(=O)(NCCCCN1CCN(c2noc3ccccc23)CC1)c1ccc(F)c(Cl)c1 [Compound 276] yields inhibition at 1 µM of 95%

Short answer for O=S(=O)(NCCCCN1CCN(c2cccc3c2OCCO3)CC1)c1cc2ccccc2s1 [Compound 399] : inhibition at 1 µM was 79%

Field inhibition at 1 µM (entry CC(C)(C)c1ccc(S(=O)(=O)NCCCN2CCN(c3nsc4ccccc34)CC2)cc1 [Compound 256] ) reads 97%

inhibition at 1 µM in this record for O=S(=O)(NCCCCN1CCN(c2cccc3[nH]ccc23)CC1)c1cnc2ccccn12 [Compound 30] : 98%

Value of inhibition at 1 µM reported for the compound Cn1ccc2ccc(S(=O)(=O)NCCCCN3CCC(c4noc5cc(F)ccc45)CC3)cc21 [Compound 311] is 105%

In plain terms, O=S(=O)(NCCCN1CCC(c2noc3cc(F)ccc23)CC1)c1ccc(F)c(Cl)c1 [Compound 331] has a documented inhibition at 1 µM of 100%

The reported value for Cc1cccc(S(=O)(=O)NCCCCN2CCC(c3noc4cc(F)ccc34)CC2)c1 [Compound 19] in terms of inhibition at 1 µM is 97%

Note to self: inhibition at 1 µM recorded for O=S(=O)(NCCCN1CCC(c2noc3cc(F)ccc23)CC1)c1cccc2ccccc12 [Compound 20] was 98%

Record O=C1COc2c(cccc2N2CCN(CCCCNS(=O)(=O)c3ccc(F)cc3)CC2)N1 [Compound 428] , field inhibition at 1 µM: 78%

Sure, the documented inhibition at 1 µM for O=S(=O)(NCCCCN1CCN(c2nsc3ccccc23)CC1)c1ccc(F)c(Cl)c1 [Compound 63] is 99%

So, O=S(=O)(NCCCCN1CCN(c2cccc3c2OCCO3)CC1)c1cccc(F)c1 [Compound 388] ? Its inhibition at 1 µM was 50%
